Task for the reader: assign each of the following compounds its reported EC50.
# TARGET OF ASSAY: Toxin B (Clostridioides difficile)
# Sequence (P18177 whole entry): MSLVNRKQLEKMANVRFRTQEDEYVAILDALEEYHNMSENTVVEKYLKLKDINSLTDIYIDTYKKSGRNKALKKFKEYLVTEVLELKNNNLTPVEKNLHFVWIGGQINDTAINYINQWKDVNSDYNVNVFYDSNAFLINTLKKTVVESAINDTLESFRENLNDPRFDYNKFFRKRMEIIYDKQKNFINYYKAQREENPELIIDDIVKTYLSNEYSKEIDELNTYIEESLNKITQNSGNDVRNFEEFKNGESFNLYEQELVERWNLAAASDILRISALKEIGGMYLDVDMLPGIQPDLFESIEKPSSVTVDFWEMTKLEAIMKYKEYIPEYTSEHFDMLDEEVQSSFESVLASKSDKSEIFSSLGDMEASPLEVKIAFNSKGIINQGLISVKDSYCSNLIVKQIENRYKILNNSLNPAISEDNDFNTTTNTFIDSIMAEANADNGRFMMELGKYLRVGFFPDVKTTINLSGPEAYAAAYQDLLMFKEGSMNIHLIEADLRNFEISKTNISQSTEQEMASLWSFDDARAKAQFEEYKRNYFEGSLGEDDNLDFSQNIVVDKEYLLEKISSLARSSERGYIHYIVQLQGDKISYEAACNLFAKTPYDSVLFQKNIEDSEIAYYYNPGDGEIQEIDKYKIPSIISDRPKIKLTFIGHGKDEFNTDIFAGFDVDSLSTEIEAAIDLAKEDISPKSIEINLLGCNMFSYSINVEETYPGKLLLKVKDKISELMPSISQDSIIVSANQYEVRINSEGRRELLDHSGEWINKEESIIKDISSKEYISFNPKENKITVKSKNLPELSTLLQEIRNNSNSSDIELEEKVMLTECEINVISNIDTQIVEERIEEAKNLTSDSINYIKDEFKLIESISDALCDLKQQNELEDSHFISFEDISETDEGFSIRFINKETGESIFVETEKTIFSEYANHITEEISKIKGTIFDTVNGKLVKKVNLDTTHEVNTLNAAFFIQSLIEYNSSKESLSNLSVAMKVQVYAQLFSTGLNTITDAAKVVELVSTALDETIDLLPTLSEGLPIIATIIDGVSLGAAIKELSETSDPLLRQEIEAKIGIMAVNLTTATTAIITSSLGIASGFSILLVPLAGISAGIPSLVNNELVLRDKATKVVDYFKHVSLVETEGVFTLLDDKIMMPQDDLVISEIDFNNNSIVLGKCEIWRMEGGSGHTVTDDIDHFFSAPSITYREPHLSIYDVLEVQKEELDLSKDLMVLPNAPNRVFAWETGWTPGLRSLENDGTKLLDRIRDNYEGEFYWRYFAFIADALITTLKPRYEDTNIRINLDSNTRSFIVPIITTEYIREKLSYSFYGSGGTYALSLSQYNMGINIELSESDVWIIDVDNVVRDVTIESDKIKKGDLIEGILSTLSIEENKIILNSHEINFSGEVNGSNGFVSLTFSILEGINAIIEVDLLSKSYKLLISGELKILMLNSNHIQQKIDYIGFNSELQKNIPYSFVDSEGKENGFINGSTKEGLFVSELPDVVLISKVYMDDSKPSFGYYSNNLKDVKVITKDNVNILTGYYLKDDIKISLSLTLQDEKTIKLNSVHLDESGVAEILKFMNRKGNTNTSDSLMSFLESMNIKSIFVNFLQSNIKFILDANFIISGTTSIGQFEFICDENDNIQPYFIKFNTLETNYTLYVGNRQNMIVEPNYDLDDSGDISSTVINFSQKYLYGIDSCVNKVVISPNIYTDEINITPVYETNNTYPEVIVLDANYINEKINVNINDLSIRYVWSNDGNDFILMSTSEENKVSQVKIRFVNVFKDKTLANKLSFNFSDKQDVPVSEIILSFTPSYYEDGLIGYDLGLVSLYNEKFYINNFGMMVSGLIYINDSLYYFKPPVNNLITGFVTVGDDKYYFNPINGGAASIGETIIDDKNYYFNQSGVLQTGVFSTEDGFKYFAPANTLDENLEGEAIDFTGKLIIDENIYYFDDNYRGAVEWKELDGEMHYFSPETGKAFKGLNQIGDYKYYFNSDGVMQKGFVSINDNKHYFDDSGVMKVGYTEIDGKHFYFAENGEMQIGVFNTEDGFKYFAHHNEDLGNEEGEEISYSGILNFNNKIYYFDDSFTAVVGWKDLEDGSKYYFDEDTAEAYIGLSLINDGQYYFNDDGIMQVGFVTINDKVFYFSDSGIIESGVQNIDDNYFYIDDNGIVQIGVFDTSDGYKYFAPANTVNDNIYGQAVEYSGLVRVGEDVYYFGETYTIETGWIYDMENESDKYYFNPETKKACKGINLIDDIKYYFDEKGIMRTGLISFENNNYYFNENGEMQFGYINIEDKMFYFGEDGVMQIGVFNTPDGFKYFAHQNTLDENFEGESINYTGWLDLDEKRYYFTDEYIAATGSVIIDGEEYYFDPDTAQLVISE
# EXPERIMENT DESCRIPTION: Allosteric activation of Clostridioides difficile Toxin B assessed as induction of autoproteolysis measured after 3 hrs by Western blot based extent cleavage assay
API: value field is a number in µM; no unit string.

// query Bench note: what EC50 did O=S(=O)(O)O[C@@H]1[C@@H](OP(O)(O)=S)[C@H](OS(=O)(=O)O)[C@H](OS(=O)(=O)O)[C@H](OS(=O)(=O)O)[C@H]1OP(O)(O)=S show?
// result 27.1

// query Bench note: what EC50 did O=P(O)(O)O[C@H]1[C@H](OP(=O)(O)O)[C@@H](OP(=O)(O)O)[C@H](OP(=O)(O)O)[C@@H](OP(=O)(O)O)[C@H]1OP(=O)(O)O show?
// result 8.39

// query Bench note: what EC50 did OP(O)(=S)O[C@H]1[C@H](OP(O)(O)=S)[C@@H](OP(O)(O)=S)[C@H](OP(O)(O)=S)[C@@H](OP(O)(O)=S)[C@H]1OP(O)(O)=S show?
// result 2.31

// query Bench note: what EC50 did O=S(=O)(O)O[C@H]1[C@H](OP(O)(O)=S)[C@H](OS(=O)(=O)O)[C@H](OP(O)(O)=S)[C@@H](OS(=O)(=O)O)[C@@H]1OP(O)(O)=S show?
// result 3.56

The measurements presented in this section are drawn from ChEMBL document CHEMBL5608240.
